Each recorded value in this set is attributed to paper PMC10986609.

Please provide measured pIC50 for the entries that follow.
Assay: in vitro
Conditions: human
One number for each entry, as −log10 of the molar value.

Compound: COC(=O)[C@]12Oc3cc4c(c(O)c3C(=O)C1=C(O)CC[C@@H]2O)[C@@H]1C=C[C@@]2(C4)C(=O)c3cc(C)cc(O)c3C(O)=C2C1=O [compound 130147, Xanthoquinodin A2]
pIC50: 4.91

Now let's try a different one.
Recorded pIC50 for COC(=O)[C@@]12Oc3cc4c(c(O)c3C(=O)C1=C(O)CC[C@@H]2O)[C@@H]1C=C[C@@]2(C4)C(=O)c3cc(C)cc(O)c3C(O)=C2C1=O [compound 130144, Xanthoquinodin A1] , please?
4.89

====

Target: Toxoplasma gondii tachyzoites (RH88)
Assay: microbe, parasite or virus in culture
Conditions: read-out: TgRH88 IC50 (mean ± SEM); luciferase expressing RH88 in HFF, 48 hours
Non-standard residues stand in square brackets, D forms with d. Residues, ends and D or L forms follow the SMILES beside them. *: point of attachment. X1 = CC(C)C[C@@H](CN1CCC[N+]2=C1CCC2)N*; Pip = O=C(O)[C@@H]1CCCCN1; Iva = CC[C@](C)(N)C(=O)O; Aib = CC(C)(N)C(=O)O; βAla = NCCC(=O)O
Quantity: pIC50
Answers are plain numbers, as −log10 of the molar value.

Previously resolved entries follow.
Compound: CC[C@](C)(NC(=O)[C@H](CC(C)C)NC(=O)[C@H](C)NC(=O)C(C)(C)NC(=O)[C@@H]1CCCCN1C(=O)C(C)(C)NC(=O)C(C)(C)NC(=O)CNC(=O)CCNC(=O)[C@H](CC(C)C)NC(=O)C(C)(C)NC(=O)[C@](C)(CC)NC(=O)[C@@H]1CCCCN1C(=O)C(C)(C)NC(=O)[C@@H]1CCCCN1C(C)=O)C(=O)N[C@@H](CC(C)C)CN1CCC[N+]2=C1CCC2 [compound 150004, Efrapeptin G] (Ac-[Pip][Aib][Pip][Iva][Aib]L[βAla]G[Aib][Aib][Pip][Aib]AL[Iva]-X1; N-terminus and C-terminus assumed)
pIC50: 7.91
--
Compound: C=C1Cc2ccc3[nH]c4c(c3c2[C@H]2[C@@H]1C[C@@H]2C(C)(C)O)C[C@@H]1CC[C@@]2(O)C3=C[C@@H](O)[C@@H](C(=C)C)O[C@H]3CC[C@]2(C)[C@@]41C [compound 120253, Secopenitrem D]
pIC50: 4.85
--
Compound: CCCCC[C@@H](O)C[C@@H](O)C[C@@H]1Cc2cc3cc(OC)c(-c4c(OC)cc5cc6c(c(O)c5c4O)C(=O)O[C@H](C[C@H](O)C[C@H](O)CCCCC)C6)c(O)c3c(O)c2C(=O)O1 [compound 150020, Dinapinone A]
pIC50: 5.50
--
Compound: CC(O)[C@@]12SS[C@]3(C(=O)N1C)[C@@H](O)C1([C@@]45c6ccccc6N[C@@H]4N4C(=O)[C@]6(C(C)O)SS[C@]4(C(=O)N6C)[C@H]5O)c4ccccc4N[C@@H]1N3C2=O (stereo partly drawn) [compound 130016, Verticillin D]
pIC50: 7.44

Now let's try a different one.
Recorded pIC50 for CC[C@](C)(NC(=O)[C@H](CC(C)C)NC(=O)[C@H](C)NC(=O)C(C)(C)NC(=O)[C@@H]1CCCCN1C(=O)C(C)(C)NC(=O)C(C)(C)NC(=O)CNC(=O)CCNC(=O)[C@H](CC(C)C)NC(=O)C(C)(C)NC(=O)C(C)(C)NC(=O)[C@@H]1CCCCN1C(=O)C(C)(C)NC(=O)[C@@H]1CCCCN1C(C)=O)C(=O)N[C@@H](CC(C)C)CN1CCC[N+]2=C1CCC2 [compound 150003, Efrapeptin F] (Ac-[Pip][Aib][Pip][Aib][Aib]L[βAla]G[Aib][Aib][Pip][Aib]AL[Iva]-X1; N-terminus and C-terminus assumed) , please?
7.26
